Entry source: patent US5411984A

assay: Stability in pH 5 buffer / mildly acidic aqueous solution (HPLC or TLC, onset of cloudiness); assay type: physicochemical; conditions: method (b): 0.5 mg in 0.1 ml EtOH and 0.9 ml pH 5 buffer, room temperature
Structures can show the parent of a compound that is named as a salt.
Value type: Stabilities at pH 5

* CC(=O)O[C@H]1C(=O)[C@@]2(C)[C@H]([C@H](OC(=O)c3ccccc3)[C@]3(O)C[C@H](OC(=O)[C@H](OC(=O)CCS(=O)(=O)O)[C@@H](NC(=O)c4ccccc4)c4ccccc4)C(C)=C1C3(C)C)[C@]1(OC(C)=O)CO[C@@H]1C[C@@H]2O [--O2 CCH2 CH2 SO3 Na, sodium salt] | > 24 h
* CC(=O)O[C@H]1C(=O)[C@@]2(C)[C@H]([C@H](OC(=O)c3ccccc3)[C@]3(O)C[C@H](OC(=O)[C@H](OC(=O)c4cc(C(=O)O)cc(C(=O)O)c4)[C@@H](NC(=O)c4ccccc4)c4ccccc4)C(C)=C1C3(C)C)[C@]1(OC(C)=O)CO[C@@H]1C[C@@H]2O | > 24 h

###

assay: Stability in mildly basic aqueous solution; assay type: physicochemical; settings: read-out: decomposed
Value type: degraded at 24 h

* CC(=O)O[C@H]1C(=O)[C@@]2(C)[C@H]([C@H](OC(=O)c3ccccc3)[C@]3(O)C[C@H](OC(=O)[C@H](OC(=O)CCC(=O)O)[C@@H](NC(=O)c4ccccc4)c4ccccc4)C(C)=C1C3(C)C)[C@]1(OC(C)=O)CO[C@@H]1C[C@@H]2O [2'-succinyl taxol, 2'-succinyl taxol (R=NaO2 CCH2 CH2 CO2), reference compound] | ~50%
